# measured on: Small ubiquitin-related modifier 1 (Homo sapiens, UniProt P63165)
# Sequence (P63165 whole entry): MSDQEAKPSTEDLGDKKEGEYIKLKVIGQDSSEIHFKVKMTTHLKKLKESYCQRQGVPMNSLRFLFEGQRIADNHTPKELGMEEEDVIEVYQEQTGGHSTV
# experiment notes: SUMO1 protein interaction blockers, potency – biochemical, fluorescence polarization, uHTS hits, dose response (AID 624382)
# Type: functional
# stated conditions: read-out: IC50_Mean
Calls of active or inactive are those of the source. Cut-off read from the data, not from the text of the source: active = IC50 of 20 µM or less and inactive = more.
reported property: IC50

Challenge: Request: IC50, test system Small ubiquitin-related modifier 1 (Homo sapiens, UniProt P63165), entry `O=C(COC(=O)c1ccccc1)Nc1ncc([N+](=O)[O-])s1`
Response given: 9.39 µM (active)

Challenge: Fill in the recorded IC50 for this compound, with Small ubiquitin-related modifier 1 (Homo sapiens, UniProt P63165) as test system: `O=C(COC(=O)c1ccc(Cl)c(S(=O)(=O)N2CCOCC2)c1)Nc1ccc2[nH]c(O)nc2c1`
Response given: > 66.6 µM (inactive)

Challenge: Request: IC50, test system Small ubiquitin-related modifier 1 (Homo sapiens, UniProt P63165), entry `O=C(O)c1ccc(-c2ccc(/C=c3/sc4nc5ccccc5n4c3=O)o2)cc1Cl`
Response given: > 66.6 µM (inactive)

Challenge: // fetch Small ubiquitin-related modifier 1 (Homo sapiens, UniProt P63165) IC50 for `O=C1NC[C@@H](Cc2ccc(O)cc2)N(CCc2cc(C(F)(F)F)cc(C(F)(F)F)c2)C1=O`
Response given: > 66.6 µM (inactive)

Challenge: For Small ubiquitin-related modifier 1 (Homo sapiens, UniProt P63165), provide IC50 of `O=C(O)c1cc(-c2ccco2)nn1-c1cccc(Cl)c1` please.
Response given: > 66.6 µM (inactive)
